Numbers sourced from patent US20250084080A1.

experiment: Hygroscopicity by dynamic vapor sorption (DVS) at 25° C.; assay type: physicochemical; details: DVS 25° C., 70% RH, 2nd desorption
ENDPOINT: Desorp. (%)
Numbers only, in %.

Some entries whose results are on file:
// Desorp. (%) value for CCOc1cc(C(=O)N(C)Cc2cnc(CO)c3cn[nH]c23)ccc1-c1cc(F)cc(F)c1.[Na] [Sodium salt Pattern A] : 2.55

// Desorp. (%) value for CCOc1cc(C(=O)N(C)Cc2cnc(CO)c3cn[nH]c23)ccc1-c1cc(F)cc(F)c1.O=P(O)(O)O [Phosphate salt Pattern A] : 0.41

// Desorp. (%) value for CCOc1cc(C(=O)N(C)Cc2cnc(CO)c3cn[nH]c23)ccc1-c1cc(F)cc(F)c1.Cl [HCl salt Pattern A] : 0.84

Continuing:
// Desorp. (%) value for CCOc1cc(C(=O)N(C)Cc2cnc(CO)c3cn[nH]c23)ccc1-c1cc(F)cc(F)c1 [Free form Pattern A] : 4.06
